Value source: patent US20250313562A1

# pIC50 annotations
target under test: FKBP51 (Homo sapiens, UniProt Q13451)
Sequence (Q13451 whole entry): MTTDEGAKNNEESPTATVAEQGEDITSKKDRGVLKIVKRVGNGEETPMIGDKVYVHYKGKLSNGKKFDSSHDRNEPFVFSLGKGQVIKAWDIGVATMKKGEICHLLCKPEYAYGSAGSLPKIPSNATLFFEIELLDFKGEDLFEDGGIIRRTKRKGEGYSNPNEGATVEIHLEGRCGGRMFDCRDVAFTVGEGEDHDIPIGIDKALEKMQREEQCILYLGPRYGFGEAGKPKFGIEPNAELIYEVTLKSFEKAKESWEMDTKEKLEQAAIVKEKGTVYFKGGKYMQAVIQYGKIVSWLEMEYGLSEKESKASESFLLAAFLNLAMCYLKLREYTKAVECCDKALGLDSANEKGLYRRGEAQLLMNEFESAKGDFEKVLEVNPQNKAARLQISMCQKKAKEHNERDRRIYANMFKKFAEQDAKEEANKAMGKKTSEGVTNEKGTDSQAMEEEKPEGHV
test protocol: nanoBRET assay, intracellular FKBP51 occupancy in HEK293T cells
experimental context: intracellular occupancy
Keep it numeric: pIC50 is minus log10 of the concentration in mol/L.

CCNC(=O)[C@@H]1CC[C@H]2[C@H](CO)C3CCCC(C(=O)N12)N3S(=O)(=O)c1cc(Cl)cc(Cl)c1 (stereo in doubt)	8.07

Now let's try a different one.
Req: Entry CC1CCN(C(=O)[C@@H]2CC[C@H]3[C@H](CO)C4CCCC(C(=O)N23)N4S(=O)(=O)c2cc(Cl)cc(Cl)c2)CC1 (stereo in doubt) has what pIC50?
Resp: 8.48
